Target: CYP3A4 (Homo sapiens, UniProt P08684)
Sequence (P08684 whole entry): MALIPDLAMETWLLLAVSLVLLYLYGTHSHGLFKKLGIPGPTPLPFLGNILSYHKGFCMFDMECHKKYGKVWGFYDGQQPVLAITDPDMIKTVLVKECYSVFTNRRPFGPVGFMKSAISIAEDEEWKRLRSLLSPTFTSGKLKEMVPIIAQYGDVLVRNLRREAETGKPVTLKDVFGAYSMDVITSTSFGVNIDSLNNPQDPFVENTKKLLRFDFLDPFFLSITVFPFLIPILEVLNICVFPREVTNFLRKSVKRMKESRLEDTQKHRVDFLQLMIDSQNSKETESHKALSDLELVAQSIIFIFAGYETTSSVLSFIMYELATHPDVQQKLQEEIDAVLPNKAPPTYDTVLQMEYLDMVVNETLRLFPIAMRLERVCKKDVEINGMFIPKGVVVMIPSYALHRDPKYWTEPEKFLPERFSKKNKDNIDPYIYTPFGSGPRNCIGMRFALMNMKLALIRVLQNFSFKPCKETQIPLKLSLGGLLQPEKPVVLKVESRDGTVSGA
Test: Time dependent inhibition of CYP3A4 in human liver microsomes using testosterone as substrate at 10 uM preincubated for 30 mins by LC-MS-MS analysis relative to control
Assay type: ADME, Microsome
Conditions: probe testosterone, read-out: TDI
Mark not fulfilled for inhibition at 30 min, 10 µM values under 20%, and fulfilled for everything at or above.

q: Answer whether inhibition at 30 min, 10 µM of `CN(C)S(=O)(=O)Cc1ccc2ccc3ncc(-c4cnn(C)c4)cc3c(=O)c2c1` is greater than or equal to 20%.
a: not fulfilled

q: Threshold query (inhibition at 30 min, 10 µM >= 20%) on `Cn1cc(-c2cnc3ccc4ccc(CS(=O)(=O)NCc5cccc[n+]5[O-])cc4c(=O)c3c2)cn1`
a: not fulfilled

q: Quick check: does `Cn1cc(-c2cnc3ccc4ccc(CS(=O)(=O)Nc5ccccc5)cc4c(=O)c3c2)cn1` have inhibition at 30 min, 10 µM greater than or equal to 20%?
a: fulfilled

q: Test whether the molecule `Cc1nccc(CNS(=O)(=O)Cc2ccc3ccc4ncc(-c5cnn(C)c5)cc4c(=O)c3c2)n1` records inhibition at 30 min, 10 µM of 20% or higher.
a: not fulfilled

q: Check the entry Cn1cc(-c2cnc3ccc4ccc(CS(=O)(=O)NCC5CCCCN5)cc4c(=O)c3c2)cn1 (stereo not given) : does inhibition at 30 min, 10 µM equal or exceed 20%?
a: not fulfilled

q: Please tell me: is the molecule `Cn1cc(-c2cnc3ccc4ccc(CS(=O)(=O)NCc5cccnc5)cc4c(=O)c3c2)cn1` at or over 20% in terms of inhibition at 30 min, 10 µM?
a: not fulfilled

q: State whether the measured inhibition at 30 min, 10 µM reaches 20%, counting equality as reaching it, for `CCCNS(=O)(=O)Cc1ccc2ccc3ncc(-c4cnn(C)c4)cc3c(=O)c2c1`
a: not fulfilled

q: # check: inhibition at 30 min, 10 µM of `CNS(=O)(=O)Cc1ccc2ccc3ncc(-c4cnn(C)c4)cc3c(=O)c2c1` is greater than or equal to 20%
a: fulfilled

q: Check if inhibition at 30 min, 10 µM >= 20% (inclusive). Item: `Cn1cc(-c2cnc3ccc4ccc(CS(=O)(=O)N[C@@H]5CCCC[C@H]5N)cc4c(=O)c3c2)cn1`
a: fulfilled

---

Target: Macrophage-stimulating protein receptor (Homo sapiens, UniProt Q04912)
Sequence (Q04912 25-304 limits assumed): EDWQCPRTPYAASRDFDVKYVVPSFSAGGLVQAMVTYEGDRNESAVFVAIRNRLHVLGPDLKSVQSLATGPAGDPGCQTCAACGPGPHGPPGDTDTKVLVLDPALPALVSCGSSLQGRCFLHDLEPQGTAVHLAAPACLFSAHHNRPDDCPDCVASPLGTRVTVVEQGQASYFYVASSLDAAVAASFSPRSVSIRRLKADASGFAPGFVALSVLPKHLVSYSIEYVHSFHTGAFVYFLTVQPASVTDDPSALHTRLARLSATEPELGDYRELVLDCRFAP
Sequence (Q04912 310-1400 limits assumed): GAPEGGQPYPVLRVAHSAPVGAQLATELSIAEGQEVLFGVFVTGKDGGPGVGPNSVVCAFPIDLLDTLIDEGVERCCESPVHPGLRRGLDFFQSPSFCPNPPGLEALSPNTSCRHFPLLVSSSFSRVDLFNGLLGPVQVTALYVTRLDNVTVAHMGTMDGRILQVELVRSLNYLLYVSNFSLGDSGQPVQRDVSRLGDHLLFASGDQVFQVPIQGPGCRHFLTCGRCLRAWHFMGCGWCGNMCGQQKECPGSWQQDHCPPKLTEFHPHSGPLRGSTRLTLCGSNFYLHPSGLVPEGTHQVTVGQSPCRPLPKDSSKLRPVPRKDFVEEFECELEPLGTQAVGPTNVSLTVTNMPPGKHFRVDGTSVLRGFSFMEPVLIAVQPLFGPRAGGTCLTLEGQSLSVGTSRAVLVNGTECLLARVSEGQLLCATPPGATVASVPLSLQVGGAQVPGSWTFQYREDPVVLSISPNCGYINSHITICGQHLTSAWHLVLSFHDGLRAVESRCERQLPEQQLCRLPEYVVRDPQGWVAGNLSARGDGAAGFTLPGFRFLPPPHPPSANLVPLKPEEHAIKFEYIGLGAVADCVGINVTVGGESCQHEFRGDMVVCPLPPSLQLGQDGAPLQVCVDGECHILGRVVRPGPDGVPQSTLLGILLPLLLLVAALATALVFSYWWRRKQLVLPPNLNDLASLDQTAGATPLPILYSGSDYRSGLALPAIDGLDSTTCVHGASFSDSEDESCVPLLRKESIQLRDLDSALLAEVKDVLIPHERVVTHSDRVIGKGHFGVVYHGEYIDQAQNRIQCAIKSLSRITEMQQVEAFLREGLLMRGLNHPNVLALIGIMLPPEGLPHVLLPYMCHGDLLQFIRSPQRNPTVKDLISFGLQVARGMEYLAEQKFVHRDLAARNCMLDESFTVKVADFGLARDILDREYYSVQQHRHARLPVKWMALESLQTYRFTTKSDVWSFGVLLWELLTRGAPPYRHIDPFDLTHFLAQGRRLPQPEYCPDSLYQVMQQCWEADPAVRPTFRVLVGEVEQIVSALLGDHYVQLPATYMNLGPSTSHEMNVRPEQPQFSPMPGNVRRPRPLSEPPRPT
parameter_measured: IC50 (nM)
Give the number; nM is assumed, so skip it.

# molecule `Cn1cc(-c2cnc3ccc4ccc(CS(=O)(=O)NCc5ccccn5)cc4c(=O)c3c2)cn1` ; its IC50 = 7

---

Assay: Oral bioavailability in rat
Type: ADME, organism-based
Conditions: in vivo
parameter_measured: bioavailability (%)
A number alone suffices; assume %.

Reported bioavailability of `Cn1cc(-c2cnc3ccc4ccc(CS(=O)(=O)NCc5ccccn5)cc4c(=O)c3c2)cn1` : 35

Item: `CN(C)S(=O)(=O)Nc1ccc2ccc3ncc(-c4cnn(C)c4)cc3c(=O)c2c1` | bioavailability: 24

---

parameter_measured: pIC50
Entry type: numeric. Quantity: pIC50, the -log10 of concentration in molar units.

Recorded pIC50 for `Cn1cc(-c2cnc3ccc4ccc(CS(=O)(=O)NCc5ccccn5)cc4c(=O)c3c2)cn1` on Cytochrome P450 2C9 (Homo sapiens, UniProt P11712) was 4.83
